system: IA-LM (Non-Small Cell Lung Carcinoma); assay: combination Emax (second highest fraction inhibited in the dose matrix, 72 h); higher = more inhibition; extreme values may be limits of the assay
Reported combination Emax maps to class as: lower range: < 0.3; middle range: ≥ 0.3 and < 0.5; upper range: ≥ 0.5

// below: answered compounds
- compound: "Cn1cnc2c(F)c(Nc3ccc(Br)cc3Cl)c(C(=O)NOCCO)cc21 [Selumetinib] + CC(C)n1c(=O)n(C)c2cnc3cc(F)c(-c4ccc(OCCCN5CCCCC5)nc4)cc3c21 [AZD1390] (first compound max 10 µM, 7x7, partner max 0.3 µM)"
  experimental_target: "IA-LM (Non-Small Cell Lung Carcinoma)"
  discrete_label: "lower range"
- compound: "CC1(C)CCC(CN2CCN(c3ccc(C(=O)NS(=O)(=O)c4ccc(NCC5CCOCC5)c([N+](=O)[O-])c4)c(Oc4cnc5[nH]ccc5c4)c3)CC2)=C(c2ccc(Cl)cc2)C1 [Venetoclax] + Cc1cc2ncnn2cc1Nc1ncc2c(n1)n(C1CCOCC1)c(=O)n2C [AZD7648] (first compound max 1 µM, 7x7, partner max 10 µM)"
  experimental_target: "IA-LM (Non-Small Cell Lung Carcinoma)"
  discrete_label: "lower range"
- compound: "COc1cccc(OCCCN)c1-c1cc(Nc2cnc(C#N)cn2)n[nH]1 [Prexasertib] + CCc1c2c(nc3ccc(O)cc13)-c1cc3c(c(=O)n1C2)COC(=O)[C@]3(O)CC [SN-38] (first compound max 1 µM, 7x7, partner max 0.3 µM)"
  experimental_target: "IA-LM (Non-Small Cell Lung Carcinoma)"
  discrete_label: "upper range"
- compound: "CC1(C)CCC(CN2CCN(c3ccc(C(=O)NS(=O)(=O)c4ccc(NCC5CCOCC5)c([N+](=O)[O-])c4)c(Oc4cnc5[nH]ccc5c4)c3)CC2)=C(c2ccc(Cl)cc2)C1 [Venetoclax] + C=CCn1c(=O)c2cnc(Nc3ccc(N4CCN(C)CC4)cc3)nc2n1-c1cccc(C(C)(C)O)n1 [AZD1775] (first compound max 1 µM, partner max 1 µM)"
  experimental_target: "IA-LM (Non-Small Cell Lung Carcinoma)"
  discrete_label: "middle range"
- compound: "Cc1c2c(nn1C)CSCc1cc(n(C)n1)CSc1cc(c3ccccc3c1)OCCCc1c(C(=O)O)n(C)c3c-2c(Cl)ccc13 [AZD5991] + C=CCn1c(=O)c2cnc(Nc3ccc(N4CCN(C)CC4)cc3)nc2n1-c1cccc(C(C)(C)O)n1 [AZD1775] (first compound max 1 µM, partner max 1 µM)"
  experimental_target: "IA-LM (Non-Small Cell Lung Carcinoma)"
  discrete_label: "lower range"
- compound: "COc1nnc2ccc(N3CCC(c4ccc(OCCN5CCN(C)C(=O)[C@H]5C)cc4)CC3)nn12 [AZD5153] + Cc1c2c(nn1C)CSCc1cc(n(C)n1)CSc1cc(c3ccccc3c1)OCCCc1c(C(=O)O)n(C)c3c-2c(Cl)ccc13 [AZD5991] (first compound max 1 µM, 7x7, partner max 1 µM)"
  experimental_target: "IA-LM (Non-Small Cell Lung Carcinoma)"
  discrete_label: "middle range"

Returns: class label. Input: CCc1c2c(nc3ccc(O)cc13)-c1cc3c(c(=O)n1C2)COC(=O)[C@]3(O)CC [SN-38] + O=C(c1cc(Cc2n[nH]c(=O)c3ccccc23)ccc1F)N1CCN(C(=O)C2CC2)CC1 [Olaparib] (first compound max 0.3 µM, 7x7, partner max 10 µM)
upper range

State the class of the compound shown: O=C(c1cc(Cc2n[nH]c(=O)c3ccccc23)ccc1F)N1CCN(C(=O)C2CC2)CC1 [Olaparib] + CC1(C)CCC(CN2CCN(c3ccc(C(=O)NS(=O)(=O)c4ccc(NCC5CCOCC5)c([N+](=O)[O-])c4)c(Oc4cnc5[nH]ccc5c4)c3)CC2)=C(c2ccc(Cl)cc2)C1 [Venetoclax] (first compound max 10 µM, 7x7, partner max 1 µM)
lower range

Which class is correct for the following compound? CN(CCO)CC[C@H](CSc1ccccc1)Nc1ccc(S(=O)(=O)NC(=O)c2ccc(N3CCC([C@@H](O)c4ccccc4-c4ccc(Cl)cc4)CC3)cc2)cc1S(=O)(=O)C(F)(F)F [AZD4320] + Nc1ccn([C@@H]2O[C@H](CO)[C@@H](O)C2(F)F)c(=O)n1 [Gemcitabine] (first compound max 1 µM, 7x7, partner max 0.3 µM)
upper range

Hi, small favor: classify Cn1cnc2c(F)c(Nc3ccc(Br)cc3Cl)c(C(=O)NOCCO)cc21 [Selumetinib] + CCN(CCO)CCCOc1ccc2c(Nc3cc(CC(=O)Nc4cccc(F)c4)[nH]n3)ncnc2c1 [AZD2811] (first compound max 10 µM, 7x7, partner max 1 µM) by its combination Emax when you get a moment.
lower range
